Reference source for all entries: ChEMBL document CHEMBL1144829

Listed compounds paired with reported pIC50
# system: Cholesteryl ester transfer protein (Homo sapiens, UniProt P11597)
# Sequence (P11597 whole entry): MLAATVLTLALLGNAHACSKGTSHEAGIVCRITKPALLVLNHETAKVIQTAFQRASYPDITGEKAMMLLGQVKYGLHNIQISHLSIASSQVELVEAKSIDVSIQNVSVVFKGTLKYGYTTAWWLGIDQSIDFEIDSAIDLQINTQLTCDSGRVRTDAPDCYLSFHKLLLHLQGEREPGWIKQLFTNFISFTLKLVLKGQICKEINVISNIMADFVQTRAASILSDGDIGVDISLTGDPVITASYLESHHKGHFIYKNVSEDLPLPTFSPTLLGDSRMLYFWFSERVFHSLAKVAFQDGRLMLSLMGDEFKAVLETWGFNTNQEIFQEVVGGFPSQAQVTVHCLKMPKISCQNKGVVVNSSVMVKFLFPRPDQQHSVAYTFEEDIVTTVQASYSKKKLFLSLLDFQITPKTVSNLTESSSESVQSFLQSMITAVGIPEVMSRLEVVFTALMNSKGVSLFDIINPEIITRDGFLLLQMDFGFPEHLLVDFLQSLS
# experimental.details: Inhibition of human CETP by scintillation proximity assay
pIC50 is defined as minus the log10 of a concentration measured in mol/L.

CC(=O)c1ccc2oc(-c3ccc(NC(=O)COc4ccccc4C)cc3)nc2c1 :: 5.92

Here COc1ccccc1OCC(=O)Nc1ccc(-c2nc3cc(C)cc(C)c3o2)cc1 was tested on Cholesteryl ester transfer protein (Homo sapiens, UniProt P11597), and its pIC50 came to 5.08

The compound Cc1cc(C)c2oc(-c3ccc(NC(=O)COc4ccc(F)cc4C)cc3)nc2c1 , when measured on Cholesteryl ester transfer protein (Homo sapiens, UniProt P11597), yielded pIC50 of 7.64

Bench note, Cholesteryl ester transfer protein (Homo sapiens, UniProt P11597): entry Cc1cc(C)c2oc(-c3ccc(NC(=O)COc4cccc(C(C)C)c4)cc3)nc2c1 , its pIC50 = 6.05

----------
# system: Cholesteryl ester transfer protein (Homo sapiens)
# experimental.details: Inhibition of human CETP by scintillation proximity assay
# IC50 per record follows

Worked set:
COC(=O)c1ccc2nc(-c3ccc(NC(=O)COc4ccccc4C)cc3)oc2c1 :: > 32 µM
COc1ccc2oc(-c3ccc(NC(=O)COc4ccccc4C)cc3)nc2c1 :: > 32 µM
Cc1cc(C)c2oc(-c3ccc(NC(=O)COc4cccc(C#N)c4)cc3)nc2c1 :: > 10 µM
Cc1cc(C)c2oc(-c3ccc(NC(=O)COc4ccc(-c5ccccc5)cc4)cc3)nc2c1 :: > 10 µM

Given item Cc1cc(C)c2oc(-c3ccc(NC(=O)COc4ccccc4C#N)cc3)nc2c1 , the value recorded as its IC50 is > 10 µM
